# ASSAY_NAME: In vivo hypocholesterolemic activity in normocholesterolemic chickens (serum lipid parameters)
# CONDITIONS_USED: Gallus gallus, po, 672 h; male chickens, orally dosed for 4 weeks at 4 mg/kg/day; total serum cholesterol; read-out: Tot.-C
# response vs control in vivo at 4 mg/kg/day annotations
Report as a plain number; the unit % is understood.

Study these solved cases before continuing.
- COMPOUND: "CC(C)=CCC/C(C)=C/CC/C(C)=C/CCC(C)(O)CCC1=CC(=O)C(C)=C(C)C1=O (stereo not shown)"
  SCALE_UNIT: "%"
  ASSAY_VALUE: 76.7
- COMPOUND: "CC(C)=CCC/C(C)=C/CC/C(C)=C/CCC(C)(O)CCC1=CC(=O)C=CC1=O (stereo not shown) [Example 16, Hydrate]"
  SCALE_UNIT: "%"
  ASSAY_VALUE: 93.8

Per the records, this compound ( CC(C)=CCC/C(C)=C/CC/C(C)=C/CCC(C)(O)CCC1=CC(=O)c2ccccc2C1=O (stereo not shown) ) has response vs control in vivo at 4 mg/kg/day equal to 82.4

Per the records, this compound ( CC(C)=CCC/C(C)=C/CC/C(C)=C/CCC(O)CCC1=CC(=O)C=CC1=O (stereo not shown) ) has response vs control in vivo at 4 mg/kg/day equal to 87.2

* * *

# ASSAY_NAME: In vivo hypocholesterolemic activity in normocholesterolemic chickens (serum lipid parameters)
# CONDITIONS_USED: Gallus gallus, po, 672 h; male chickens, orally dosed for 4 weeks at 4 mg/kg/day; total serum cholesterol; read-out: Tot.-C
# response vs control in vivo at 4 mg/kg/day annotations

- MOLECULE: "CC1=C(C)C(=O)C(CCC(C)(O)CC/C=C(\\C)CCc2cccc(C(F)(F)F)c2)=CC1=O (stereo not drawn)"
  ASSAY_VALUE: "57.7%"
- MOLECULE: "CC(C)=CCC/C(C)=C/CC/C(C)=C/CC/C(C)=C/CC1=C(C)C(=O)c2ccccc2C1=O [Vitamin K2, reference compound]"
  ASSAY_VALUE: "116%"

Per the records, this molecule ( CC(C)=CCC/C(C)=C/CC/C(C)=C/CCC(O)CCC1=CC(=O)C(C)=C(C)C1=O (stereo not drawn) ) has response vs control in vivo at 4 mg/kg/day equal to 82.7%

Numbers sourced from patent US5318993A.
